- assay-comment: Single ascending oral dose study in healthy volunteers: plasma pharmacokinetics
- Assay type: in vivo, human
- applied-conditions: human, plasma, oral, 525 mg; read-out: AUC0-24, Median
parameter-measured: AUC(0-t) (ng·h/mL)
Please give a number only; it is taken to be in ng·h/mL.

The compound listed as Cn1cc(S(=O)(=O)[C@@](C)(F)C2CCN(C(=O)Nc3ccon3)CC2)c(C(F)F)n1 shows AUC(0-t) equal to 38200

====

- assay-comment: Food effect cross-over study, 200 mg (25 mg tablets), healthy volunteers: plasma pharmacokinetics
- Format: in vivo, human
- applied-conditions: human, plasma, oral, 24 hours postdose, Fasted, read-out: Plasma concentration, Geometric Mean
parameter-measured: concentration at 24 h (ng/mL)
Please give a number only; it is taken to be in ng/mL.

The compound listed as Cn1cc(S(=O)(=O)[C@@](C)(F)C2CCN(C(=O)Nc3ccon3)CC2)c(C(F)F)n1 [Compound I] shows concentration at 24 h equal to 1070
